B1: scFv; the commonest letter at each place (parent)
chain 1: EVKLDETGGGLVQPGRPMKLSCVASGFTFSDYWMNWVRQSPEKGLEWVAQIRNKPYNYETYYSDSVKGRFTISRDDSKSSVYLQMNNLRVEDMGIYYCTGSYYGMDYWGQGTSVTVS
chain 2: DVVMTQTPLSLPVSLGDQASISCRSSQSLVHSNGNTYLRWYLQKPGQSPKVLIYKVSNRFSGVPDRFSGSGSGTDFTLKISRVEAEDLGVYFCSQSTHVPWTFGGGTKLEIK

Variants of: B1
Test method notes: yeast surface expression (ratio to wild type); higher = more expressed
Measurement context: format: scFv 4-4-20, heavy + light
yeast surface expression: recorded values

Example entries begin here.
[[record]]
variant_notation = "chain 1 Y103H M105F Y107L"
value_measured = 0.92

[[record]]
variant_notation = "chain 1 Y103L Y107S"
value_measured = 0.878

[[record]]
variant_notation = "chain 1 M105C D106E"
value_measured = 0.902

[[record]]
variant_notation = "chain 1 M105D"
value_measured = 0.695

[[record]]
variant_notation = "chain 1 Y32M W36D"
value_measured = 0.63


Ask: Please report the recorded yeast surface expression for chain 1 D106E .
Result: 1.1

Ask: Please report the recorded yeast surface expression for chain 1 T28A Y32V .
Result: 1.32

Ask: Please report the recorded yeast surface expression for chain 1 Y102M .
Result: 0.944

Ask: Please report the recorded yeast surface expression for chain 1 M34P N35D .
Result: 0.873

Ask: Please report the recorded yeast surface expression for chain 1 Y103G W108F .
Result: 1.06

Ask: Please report the recorded yeast surface expression for chain 1 D106H G109K .
Result: 0.265

Ask: Please report the recorded yeast surface expression for chain 1 T28K Y32V .
Result: 0.858

Ask: Please report the recorded yeast surface expression for chain 1 S101R G109M .
Result: 0.251
